# tested target: Elastase (Pseudomonas aeruginosa (strain ATCC 15692 / DSM 22644 / CIP 104116 / JCM 14847 / LMG 12228 / 1C / PRS 101 / PAO1))
# Sequence (P14756 whole entry): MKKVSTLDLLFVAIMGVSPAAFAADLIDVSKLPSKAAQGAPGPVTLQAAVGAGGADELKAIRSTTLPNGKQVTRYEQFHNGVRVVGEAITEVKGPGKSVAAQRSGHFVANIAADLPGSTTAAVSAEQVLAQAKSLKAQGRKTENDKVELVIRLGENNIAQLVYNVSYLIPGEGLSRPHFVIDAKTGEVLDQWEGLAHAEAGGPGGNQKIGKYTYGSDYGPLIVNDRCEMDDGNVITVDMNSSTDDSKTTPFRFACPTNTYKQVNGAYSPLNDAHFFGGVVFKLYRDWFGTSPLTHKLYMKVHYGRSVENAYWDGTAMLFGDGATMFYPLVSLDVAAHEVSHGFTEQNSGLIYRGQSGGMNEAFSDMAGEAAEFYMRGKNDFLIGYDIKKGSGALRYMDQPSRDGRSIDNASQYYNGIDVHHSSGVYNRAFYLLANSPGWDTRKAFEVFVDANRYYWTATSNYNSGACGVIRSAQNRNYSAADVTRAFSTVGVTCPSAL
# measurement description: Fluorometric Assay
pKi: −log10 of the molar value.
endpoint: pKi

Problem: Specify measured pKi for COc1cc2sc(CNC(=O)C3(CC(=O)O)Cc4cc(F)c(F)cc4C3)nc2cc1C(=O)N1CCN(C)CC1 .
Solution: > 7.30
